Test system: M14 melanoma
Assay: NCI-60 one-dose screen, 48 h (100 = growth as untreated, 0 = no growth, -100 = all killed)
Conditions: 10 µM unless noted
The panel holds about 83,000 compounds, 20% with a hit somewhere; the sample as a whole holds those more often.
Let's look at some compounds and their measured growth.
measuredMetric: growth (%)

compound: O=C(NCCCl)Nc1ncccc1OCc1ccccc1
unitsSymbol: %
testValue: 99.8
--
compound: CN(C)S(=O)(=O)c1cccc(C(=O)Nc2nc(-c3ccc(F)c(F)c3)cs2)c1
unitsSymbol: %
testValue: 60.8
--
compound: Cn1cc(-c2csc(-c3cn(C(=O)OC(C)(C)C)c4ccc(Br)cc34)n2)c2ccnc(Cl)c21
unitsSymbol: %
testValue: 88.2
--
compound: CCN1C(=S)N(c2ccccc2)C2NC(=S)N(/N=C/C=C/c3ccccc3OC)C21 (stereo not given)
unitsSymbol: %
testValue: 3.35
--
compound: Cc1ccc(/C=C2\COc3ccc(O)cc3C2=O)cc1
unitsSymbol: %
testValue: 93.1
--
compound: O=c1c2cccc3c(N4CCCC4)ccc(c32)c2nc3ccccc3n12
unitsSymbol: %
testValue: 91.5
--
compound: O=c1c2ccccc2n2cnc3ccc(Cl)c1c32
unitsSymbol: %
testValue: 83.9
--
compound: N#CC1=C(N)Oc2c(c(=O)[nH]c3ccc(Cl)cc23)C12C(=O)c1ccccc1C2=O
unitsSymbol: %
testValue: 97.8
--
compound: Fc1cccc(Oc2ccc(Nc3ncnc4ccc(OCCCN5CCOCC5)cc34)cc2Cl)c1
unitsSymbol: %
testValue: -44
--
compound: COc1ccc(C(=O)Nc2cccc(-c3cc(=O)c4c(OC)c(OC)c(OC)cc4o3)c2)cc1
unitsSymbol: %
testValue: 68
--
compound: CCc1ccccc1-n1c(-c2ccc(OC)cc2)cc(-c2ccc(OC)cc2)c(C#N)c1=O
unitsSymbol: %
testValue: 100
--
compound: O=S(=O)(NCCCNc1nccc(-c2c(-c3ccc(F)c(O)c3)nc3occn23)n1)c1ccc(Cl)cc1
unitsSymbol: %
testValue: 19.6
--
compound: CCSc1nc2scc(C)c2c(=O)[nH]1
unitsSymbol: %
testValue: 107
--
compound: CCOc1ccc(NC(=O)CSc2oc(-c3ccccc3)nc2S(=O)(=O)c2ccc(C)cc2)cc1
unitsSymbol: %
testValue: 71
--
compound: N#Cc1nc(-c2ccc(F)cc2)oc1S(=O)(=O)N1CCCCC1
unitsSymbol: %
testValue: 68.7
--
compound: CS(=O)(=O)Nc1cc(-c2ccc3ncnc(Nc4ccc5c(cnn5Cc5ccc(F)cc5)c4)c3c2)cnc1Cl
unitsSymbol: %
testValue: 36.8
--
compound: CCOC(=O)C1=C(c2ccccc2)N=C2SC=C(c3ccc(Cl)cc3)N2C1c1ccc(Cl)cc1 (stereo not given)
unitsSymbol: %
testValue: 82.8
--
compound: CCOC(=O)C/C(=N\Nc1cc(=O)[nH]c2ccc(Br)cc12)C(=O)OCC
unitsSymbol: %
testValue: 96.8
--
compound: COc1c(B(O)O)cccc1-c1cc(C)c2c(ccc3[nH]ncc32)n1
unitsSymbol: %
testValue: 131
--
compound: O=C1Nc2ccccc2/C1=C/c1cccn1CCCCn1c2ccccc2c(=O)c2ccccc21
unitsSymbol: %
testValue: 85.1

* * *

Let's look at some molecules and their measured growth.
Tested on: TK-10 renal
Assay: NCI-60 one-dose screen, 48 h (100 = growth as untreated, 0 = no growth, -100 = all killed)
Details: 10 µM unless noted
Compounds without any hit were thinned out: in the full panel of roughly 83,000, 20% have a hit. Active and inactive are the calls of the source. The calls were made as follows: active = growth percent below 10; inactive = the rest.

chemicalString: COc1cc2c(cc1OCCCN1CCN(CCCOc3cc4c(cc3OC)C(=O)N3CCC[C@H]3C=N4)CC1)C=CC(C)(C)O2
growth: -83.6% (active)
--
chemicalString: O=C1C(Cl)=C(NCCCCCCNC2=C(Cl)C(=O)c3ccccc3C2=O)C(=O)c2ccccc21
growth: 109% (inactive)
--
chemicalString: CSc1oc(C)nc1[P+](c1ccccc1)(c1ccccc1)c1ccccc1
growth: 88.2% (inactive)
--
chemicalString: O=C1/C(=C/c2ccccc2O)CC/C1=C\c1ccccc1O
growth: 160% (inactive)
--
chemicalString: C=C(C)[C@@H]1CC[C@]2(C(=O)N3CCOCC3)CC[C@]3(C)[C@H](CC[C@@H]4[C@@]5(C)C/C(=C/c6ccncc6)C(=O)C(C)(C)[C@@H]5CC[C@]43C)[C@@H]12
growth: 91% (inactive)
--
chemicalString: C1CN(SSN2CCOCC2)CCO1
growth: -72.8% [100 µM] (active)
--
chemicalString: Cc1ccc(NC(=O)c2sc3nc(C)c(Br)c(C)c3c2N)cc1
growth: 50.7% (inactive)
--
chemicalString: CCCn1cc2c(=O)nc3sc(Cc4ccccc4)c(C)n3c2n1
growth: 92.9% (inactive)
--
chemicalString: COc1ccc(OC)c(-c2nc(SCC(=O)c3ccc(C#N)cc3)[nH]c(=O)c2C#N)c1
growth: 103% (inactive)
--
chemicalString: O=[N+]([O-])c1cccc(-c2nc3cc4nc5ccccc5[nH]c4cc3n2)c1
growth: 105% (inactive)
